# assayed_system: P2X4-D302I receptor mutant (Homo sapiens, UniProt Q99571, D302I)
# protocol_text: cell-based
# condition_details: ATP EC50, P2X4-D302I
pEC50: −log10 of the molar value.
measurement_kind: pEC50

1. Nc1ncnc2c1ncn2[C@@H]1O[C@H](COP(=O)(O)OP(=O)(O)OP(=O)(O)O)[C@@H](O)[C@H]1O [ATP, Adenosine 5′-triphosphate] | 5.80

* * *

# assayed_system: P2X4-Q308T receptor mutant (Homo sapiens, UniProt Q99571, Q308T)
# protocol_text: cell-based
# condition_details: ATP EC50, P2X4-Q308T
pEC50: −log10 of the molar value.
measurement_kind: pEC50

1) Nc1ncnc2c1ncn2[C@@H]1O[C@H](COP(=O)(O)OP(=O)(O)OP(=O)(O)O)[C@@H](O)[C@H]1O [ATP, Adenosine 5′-triphosphate] | 6.53

* * *

# assayed_system: chimeric P2X4(P2X2) receptor c7^I218-D224 (Homo sapiens, UniProt Q99571, A221E/D220H/I218T/K222A/T223S/Y219F)
# protocol_text: cell-based
pEC50: −log10 of the molar value.
measurement_kind: pEC50

1) Nc1ncnc2c1ncn2[C@@H]1O[C@H](COP(=O)(O)OP(=O)(O)OP(=O)(O)O)[C@@H](O)[C@H]1O [ATP, Adenosine 5′-triphosphate] | 5.92

* * *

# assayed_system: chimeric P2X4(P2X2) receptor c2-c5^C116-T186 (Homo sapiens, UniProt Q99571, A122H/A137L/A177Q/A181M/D121V/DEL149-175/E183P/G138D/H140L/INS118S/INS148CVPYYQGPSKTCEVFGWCPVEDGASV/INS179G/K127L/K180T/P120R/P176S/S131D/S136E/S141G/S145R/T123N/T124A/T133V/T139M/V125T/V144L)
# protocol_text: cell-based
measurement_kind: EC50 (nM)

1) Nc1ncnc2c1ncn2[C@@H]1O[C@H](COP(=O)(O)OP(=O)(O)OP(=O)(O)O)[C@@H](O)[C@H]1O [ATP, Adenosine 5′-triphosphate] | 2290

* * *

# assayed_system: chimeric P2X4(P2X2) receptor c8^R265-L269 (Homo sapiens, UniProt Q99571, A266P/L269E/R265L)
# Sequence (Q99571 1-388 R265L/A266P/L269E): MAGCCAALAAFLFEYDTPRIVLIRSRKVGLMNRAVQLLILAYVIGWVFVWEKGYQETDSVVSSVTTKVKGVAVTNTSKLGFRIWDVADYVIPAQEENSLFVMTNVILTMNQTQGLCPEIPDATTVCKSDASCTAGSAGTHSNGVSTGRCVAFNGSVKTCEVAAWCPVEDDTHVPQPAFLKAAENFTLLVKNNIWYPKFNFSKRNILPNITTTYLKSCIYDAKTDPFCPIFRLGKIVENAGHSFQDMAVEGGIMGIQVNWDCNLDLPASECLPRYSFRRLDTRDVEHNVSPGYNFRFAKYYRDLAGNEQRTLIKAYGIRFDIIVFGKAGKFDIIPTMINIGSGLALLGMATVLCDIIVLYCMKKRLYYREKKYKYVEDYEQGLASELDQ
# protocol_text: cell-based
measurement_kind: EC50 (nM)

1) Nc1ncnc2c1ncn2[C@@H]1O[C@H](COP(=O)(O)OP(=O)(O)OP(=O)(O)O)[C@@H](O)[C@H]1O [ATP, Adenosine 5′-triphosphate] | 389

* * *

# assayed_system: human wt P2X2 receptor (Homo sapiens)
# Construct: expressed in transfected cells
# Sequence (Q9UBL9 1-471): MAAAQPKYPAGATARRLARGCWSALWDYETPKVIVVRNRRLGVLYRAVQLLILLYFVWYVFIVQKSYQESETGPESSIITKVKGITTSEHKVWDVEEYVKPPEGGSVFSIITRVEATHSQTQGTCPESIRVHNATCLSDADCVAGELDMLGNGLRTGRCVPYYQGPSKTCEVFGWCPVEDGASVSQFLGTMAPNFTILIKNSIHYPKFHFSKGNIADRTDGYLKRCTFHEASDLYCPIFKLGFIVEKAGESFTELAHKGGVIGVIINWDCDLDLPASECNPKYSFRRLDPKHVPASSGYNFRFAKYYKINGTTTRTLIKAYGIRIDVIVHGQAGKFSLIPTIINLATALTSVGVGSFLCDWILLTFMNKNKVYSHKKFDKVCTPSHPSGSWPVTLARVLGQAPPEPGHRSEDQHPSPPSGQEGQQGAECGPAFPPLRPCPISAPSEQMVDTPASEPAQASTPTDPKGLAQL
# protocol_text: ATP-induced calcium influx assay, human wt P2X2 receptor in 1321N1 astrocytoma cells
# Format: cell-based
# condition_details: ATP EC50, wt hP2X2; calcium influx
measurement_kind: EC50 (nM)

1) Nc1ncnc2c1ncn2[C@@H]1O[C@H](COP(=O)(O)OP(=O)(O)OP(=O)(O)O)[C@@H](O)[C@H]1O [ATP, Adenosine 5′-triphosphate] | 637

* * *

# assayed_system: chimeric P2X4(P2X2) receptor c10^R301-Q308 (Homo sapiens, UniProt Q99571, A304N/D302K/DEL301-301/E307T/L303I/N306T/Q308T)
# Construct: expressed in transfected cells; gene synthesis (Geneart), pLVX-IRES-mCherry (bicistronic, mCherry not fused)
# Sequence (Q99571 with tags, fused parts or gaps DEL301-301/D302K/L303I/A304N/N306T/E307T/Q308T): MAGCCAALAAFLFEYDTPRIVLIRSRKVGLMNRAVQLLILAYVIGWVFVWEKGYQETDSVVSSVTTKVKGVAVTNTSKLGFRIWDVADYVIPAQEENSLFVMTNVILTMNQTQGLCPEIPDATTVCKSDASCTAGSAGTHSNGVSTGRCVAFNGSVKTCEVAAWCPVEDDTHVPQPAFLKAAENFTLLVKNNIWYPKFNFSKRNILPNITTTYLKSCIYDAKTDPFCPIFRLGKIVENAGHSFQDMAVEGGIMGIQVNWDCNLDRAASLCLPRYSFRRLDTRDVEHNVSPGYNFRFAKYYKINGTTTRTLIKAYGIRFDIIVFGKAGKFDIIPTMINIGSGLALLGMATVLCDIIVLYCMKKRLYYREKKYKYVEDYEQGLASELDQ
# protocol_text: ATP-induced calcium influx assay, chimeric receptor c10 in 1321N1 astrocytoma cells
# Assay type: cell-based
pEC50: −log10 of the molar value.
measurement_kind: pEC50

1) Nc1ncnc2c1ncn2[C@@H]1O[C@H](COP(=O)(O)OP(=O)(O)OP(=O)(O)O)[C@@H](O)[C@H]1O [ATP, Adenosine 5′-triphosphate] | 6.04

* * *

# assayed_system: human wt P2X4 receptor (Homo sapiens)
# Sequence (Q99571 1-388): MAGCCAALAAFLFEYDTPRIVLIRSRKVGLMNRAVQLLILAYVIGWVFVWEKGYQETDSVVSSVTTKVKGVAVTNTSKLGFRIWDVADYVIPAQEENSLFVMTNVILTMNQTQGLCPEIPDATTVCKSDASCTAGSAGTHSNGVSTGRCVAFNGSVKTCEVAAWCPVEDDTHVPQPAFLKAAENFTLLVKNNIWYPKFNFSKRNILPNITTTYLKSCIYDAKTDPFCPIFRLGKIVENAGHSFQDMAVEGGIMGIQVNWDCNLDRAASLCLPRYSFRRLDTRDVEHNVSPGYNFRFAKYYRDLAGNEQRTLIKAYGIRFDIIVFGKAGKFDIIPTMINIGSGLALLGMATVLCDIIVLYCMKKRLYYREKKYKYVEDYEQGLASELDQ
measurement_kind: Kd (nM)

1. Nc1ncnc2c1ncn2[C@@H]1O[C@H](CO[P@](=O)(O)O[P@](=O)(O)O[P@@](=O)(O)S)[C@@H](O)[C@H]1O | 14.1

* * *

# assayed_system: hP2X4-E307T receptor mutant (Homo sapiens, UniProt Q99571, E307T)
# protocol_text: Two-electrode voltage clamp (TEVC), P2X4-E307T in Xenopus laevis oocytes
# condition_details: TEVC at -60 mV, Xenopus oocytes, P2X4-E307T
measurement_kind: EC50

1. Nc1ncnc2c1ncn2[C@@H]1O[C@H](COP(=O)(O)OP(=O)(O)OP(=O)(O)O)[C@@H](O)[C@H]1O [ATP, Adenosine 5′-triphosphate] | ~10 µM

* * *

pIC50 values, listed per item
# assayed_system: human P2X4-E307T receptor mutant (Homo sapiens, UniProt Q99571, E307T)
# protocol_text: ATP-induced calcium influx assay, P2X4-E307T mutant in 1321N1 astrocytoma cells
pIC50: −log10 of the molar value.
measurement_kind: pIC50

1. Nc1c(S(=O)(=O)O)cc(Nc2ccc(Nc3ccccc3)c(S(=O)(=O)O)c2)c2c1C(=O)c1ccccc1C2=O | 7.45
2. Nc1c(C(=O)O)cc(Nc2ccc(Nc3ccccc3)c(C(=O)O)c2)c2c1C(=O)c1ccccc1C2=O | 7.14

* * *

# assayed_system: human wt P2X4 receptor (Homo sapiens)
# protocol_text: ATP-induced calcium influx assay, human wt P2X4 receptor in 1321N1 astrocytoma cells
measurement_kind: IC50 (µM)

1) Nc1c(S(=O)(=O)O)cc(Nc2ccc(Nc3ccccc3)c(S(=O)(=O)O)c2)c2c1C(=O)c1ccccc1C2=O [PSB-0739] | 8.91
2) Nc1c(C(=O)O)cc(Nc2ccc(Nc3ccccc3)c(C(=O)O)c2)c2c1C(=O)c1ccccc1C2=O [PSB-0704] | 12.5

Data origin, for the record: paper PMC12678798
